B1: FAM164C (parent)
chain: YPHCTGISQQDPESDSQGQGNGLF

# Variants of: B1
# assay-procedure: protein stability index of a GFP-peptide fusion (GPS, HEK-293T) (PSI 1-6); higher = more stable;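 also: lentivirally expressed fusions sorted by FACS into six bins by GFP to DsRed ratio, PSI derived from sequencing read proportions per bin multiplied by bin number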
# condition-notes: c terminus: a fixed tail appended
# protein stability index per record follows
Just the number.

The following variants have reported results that may help.
N21S    3.78
Q9I    3.71

Incoming: What value of protein stability index has been recorded for this entry: "G18K"
Outgoing: 3.5

Incoming: Now the same for "N21T"
Outgoing: 4.04

Incoming: Now the same for "L23V"
Outgoing: 3.87

Incoming: Now the same for "Q17D"
Outgoing: 3.26

Incoming: Now the same for "E13F"
Outgoing: 2.44

Incoming: Now the same for "D15W"
Outgoing: 2.63

Incoming: Now the same for "P2E"
Outgoing: 5.31

Incoming: Now the same for "G18W"
Outgoing: 2.62

Incoming: Now the same for "G6A"
Outgoing: 3.53

Incoming: Now the same for "S16Y"
Outgoing: 3.44
